- METHOD NOTES: A quantitative high throughput screen for small molecules that induce DNA re-replication in MCF 10a normal breast cells. Further: nearly all actives have a fitted effect of over 50% in size.
- ASSAY SETUP: MCF 10A DNA re-replication, Hoechst nuclear intensity, 48 h; series mostly up to 46.1 µM
Hit rate of the full screen: of about 350,000 compounds, about 9,900 (2.8%) were called active. Inconclusive results (about 15%) are left out. The call rests on the fitted dose curve; in most records, active means well fitted activation curve with a large enough effect; inconclusive means small, poorly fitted or top-dose-only effect; inactive means no such curve, though single readings can be large or run the other way. The sample as a whole holds a higher share of actives than the screen did.
Outcome (select one): active, inactive

Ask: Can you look up the reported call for CCOc1cc(/C=C(\C#N)c2nc(-c3cccs3)c(NC(C)=O)s2)ccc1O for me?
Reply: active

Ask: Which outcome was entered for the molecule COc1cc(/C=N\Nc2nc(-c3cccs3)c(NC(C)=O)s2)ccc1O in this test?
Reply: inactive

Ask: # lookup: test call for CCOc1cc(C=NNC(=O)CCCC(=O)NN=Cc2ccc(O)c(OCC)c2)ccc1O
Reply: inactive

Ask: Entry CCc1cccc(NC(=O)COC(=O)c2cc(=O)c3ccccc3o2)c1 : call = ?
Reply: inactive

Ask: Check the results log: what was the call for CC1CCCCC1NC(=O)NC(=O)COC(=O)C1=NN(c2ccccc2)C(=O)CC1 (stereo not given) ?
Reply: inactive
